test system: Plasmodium falciparum; experiment: Antiplasmodial activity against Plasmodium falciparum Dd2 assessed as reduction in parasite viability incubated for 72 hrs by SYBR Green I dye based assay; format: functional, organism-based; settings: Dd2, 72 h
Consider the reported IC50 of an entry and match it to a band in zone 1 (below 5 µM), zone 2 (5 µM to below 10 µM), zone 3 (10 µM or more)

>  <molecule>
C[C@@H]1CC[C@H]2[C@@H](C)C(=O)O[C@@H]3O[C@@]4(C)CC[C@@H]1[C@]32OO4

>  <category.label>
zone 1

$$$$
>  <molecule>
CC[C@H](C)C(=O)c1c(O)cc(O)c(CC(CCC(C)(C)O)/C(C)=C/CC=C(C)C)c1O (some centres undefined)

>  <category.label>
zone 2

$$$$
>  <molecule>
C=C1[C@@H](Cc2c(O)cc(O)c(C(=O)[C@@H](C)CC)c2O)CCC(C)(C)[C@@H]1CC=C(C)C

>  <category.label>
zone 1

$$$$
>  <molecule>
CC[C@H](C)C(=O)c1c(O)cc(O)c(CCC(C)(O)CCC=C(C)C)c1O (some centres undefined)

>  <category.label>
zone 2

$$$$
>  <molecule>
CC[C@H](C)C(=O)c1c(O)cc(O)c(CC2=C(C)[C@@H](CC=C(C)C)C(C)(C)CC2)c1O

>  <category.label>
zone 1

$$$$
>  <molecule>
CC(C)=CCC/C(C)=C/CC/C(C)=C/CC[C@]1(C)CCc2cc(O)cc(C)c2O1

>  <category.label>
zone 2

$$$$
>  <molecule>
CC(C)=CCC/C(C)=C/Cc1c(O)cc(O)c(C(=O)C(C)C)c1O

>  <category.label>
zone 3

$$$$
>  <molecule>
CC[C@H](C)C(=O)c1c(O)cc2c(c1O)C[C@@H]1C(C)(C)CCC[C@@]1(C)O2 (relative stereo)

>  <category.label>
zone 3

$$$$
>  <molecule>
C=C(C)CCC(Cc1c(O)cc(O)c(C(=O)[C@@H](C)CC)c1O)/C(C)=C/CC=C(C)C (some centres undefined)

>  <category.label>
zone 3

$$$$
